measurement_protocol: Cytotoxicity Determination
Type: cell-based
experimental_context: human, HEp-2 cells, without addition of virus, CCK-8 readout, bins (Table 4: greater than 100 μM; Table 5: equal to or less than 100 μM and greater than 10 μM), read-out: 50% cytotoxicity concentration (CC50)
experimental_readout: CC50 at 5 days

compound: COc1cccc(/C(=N/NC(=O)CNC(=O)c2ccc(OC)c(OC)c2)C(F)(F)F)c1
result: > 100 µM

## Input Requested read-out: CC50 at 5 days. Entry: COc1ccc(C(=O)NCC(=O)N/N=C/c2csc3cc(F)ccc23)cc1OC
## Output 10 to 100 µM

## Input Requested field: CC50 at 5 days. Item: COc1cc(C(=O)NCC(=O)N2CCCC(c3csc4c(F)cccc34)=N2)ccc1OCCO
## Output > 100 µM

## Input CC50 at 5 days for COc1ccc(C(=O)NC(C)C(=O)c2ccc(OC)c(-c3csc4c(F)cccc34)n2)cc1OC (stereo not shown) ?
## Output > 100 µM
